Test system: KM12
Test Description: NCI tumour cell line growth inhibition, 48 h
Active and inactive are the calls of the source. No stated cut-off is given here; in the data, active = GI50 up to about 1.1 µM and inactive = higher.
Exercise: state measured GI50 for each of the compounds provided.

*Q* Query: GI50; subject: NCCCNCCCNCCCN
*A* > 100 µM (inactive)

*Q* Which GI50 value is on record for CC1=C(C)[C@@]2(C)O[C@@]2(C)O[C@@]2(C)O[C@@]12C ?
*A* > 100 µM (inactive)

*Q* For the compound shown here, OCC(O)C(OC1OC(CO)C(O)C(O)C1O)c1nn(-c2ccccc2)c2nc3cc(Cl)ccc3nc12 (centres undefined) , give the reported GI50.
*A* > 100 µM (inactive)

*Q* So what's the measured GI50 for this one? O=C(OCc1ccccc1)C(Cc1ccccc1)N(Cc1ccccc1)Cc1ccccc1 (centres undefined)
*A* > 100 µM (inactive)

*Q* Quick one: GI50 for Cc1cc(O)c(C=O)c2c1C(=O)Oc1c(CO)c(O)c3c(c1O2)C(O)OC3=O (centres undefined) ?
*A* 36.7 µM (inactive)

*Q* Using the record for O=C1OC(C2(O)OC(=O)c3ccccc32)c2ccccc21 (centres undefined) , report its GI50.
*A* > 100 µM (inactive)

*Q* Look up GI50 for this compound: Cc1ccc(S(=O)(=O)N/N=C2\CCC3(O)CC2(C)CCC2C3CC2(C)C)cc1 (centres undefined)
*A* 35.6 µM (inactive)

*Q* Look at this compound and give its reported GI50. O=c1[nH]nc(-c2ccccc2)n1-n1cnnc1
*A* > 100 µM (inactive)

*Q* What does the record list as GI50 for O=c1cc(-c2ccccc2)oc2ccc(Cl)cc12 ?
*A* > 64.7 µM (inactive)

*Q* Fill in the blank: the reported GI50 of CCc1cccc(C(C)(C)C)c1NC(=S)N/C=C(/C#N)C(N)=O is ____.
*A* > 100 µM (inactive)

*Q* Could you tell me which GI50 is on file for CC1CC/C(=C\c2ccc(Cl)cc2)C2OC(N)=C(C#N)C(c3ccc(Cl)cc3)=C12 (centres undefined) ?
*A* 11.7 µM (inactive)

*Q* Please give the measured GI50 for this compound: COC(=O)/C=C/c1cc(O)c2c(c1)[C@H](C(=O)OC)[C@@H](c1ccc(O)c(O)c1)O2
*A* 0.283 µM (active)

*Q* Would you mind telling me what GI50 value was observed for CC1OC(O[C@H]2CC[C@]3(C=O)[C@H]4CC[C@]5(C)[C@H](C6=CC(=O)OC6)CC[C@]5(O)[C@@H]4C=C[C@]3(O)C2)CC(O)C1O (some centres undefined) ?
*A* 0.676 µM (active)

*Q* Tell me the measured GI50 of CC(=O)O[C@H]1C(N(C)C(=O)c2ccccc2)CC[C@]2(C)C3CC[C@@]4(C)C(CC(O)[C@@H]4C(C)N(C)C)[C@@H]3CCC12 (some centres undefined) , please.
*A* > 100 µM (inactive)

*Q* Using the record for COC1(C)CCC(OS(C)(=O)=O)CO1 (centres undefined) , report its GI50.
*A* > 100 µM (inactive)

*Q* May I ask what GI50 has been recorded for NC1=C(C(=O)O)C(=O)C(Nc2c(O)cccc2C(=O)O)=CC1=O ?
*A* > 100 µM (inactive)

*Q* # get_value(readout='GI50', item= O=C(O)CNc1ncc2c(n1)-c1ccccc1OC2 )
*A* > 100 µM (inactive)

*Q* Which GI50 is reported for this compound? O=C1/C(=C(\Nc2ccccc2)c2ccccc2)C=NN1c1ccccc1
*A* > 100 µM (inactive)

*Q* If you can, please state the reported GI50 value of COCc1cc2c(cc1/C=C/[N+](=O)[O-])OCO2 .
*A* 20.8 µM (inactive)

# credit: ChEMBL document CHEMBL1201862
